Sourced from patent US20230050148A1

- system-under-test: hGARP-proTGFβ1 in the cell-based potency assay (human, UniProt P01137 30-390; Q14392 20-662)
- Sequence (P01137 30-390 limits assumed, chain 1 of 2): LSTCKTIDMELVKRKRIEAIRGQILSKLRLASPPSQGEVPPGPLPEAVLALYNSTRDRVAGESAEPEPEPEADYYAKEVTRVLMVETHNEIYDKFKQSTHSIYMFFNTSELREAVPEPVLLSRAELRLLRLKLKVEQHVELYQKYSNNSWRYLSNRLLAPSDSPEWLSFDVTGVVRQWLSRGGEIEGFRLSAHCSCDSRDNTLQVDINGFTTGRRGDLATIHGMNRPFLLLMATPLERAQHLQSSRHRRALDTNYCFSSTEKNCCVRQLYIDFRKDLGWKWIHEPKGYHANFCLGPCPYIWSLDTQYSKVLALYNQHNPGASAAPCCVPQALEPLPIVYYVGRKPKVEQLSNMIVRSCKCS
- Sequence (Q14392 20-662 limits assumed, chain 2 of 2): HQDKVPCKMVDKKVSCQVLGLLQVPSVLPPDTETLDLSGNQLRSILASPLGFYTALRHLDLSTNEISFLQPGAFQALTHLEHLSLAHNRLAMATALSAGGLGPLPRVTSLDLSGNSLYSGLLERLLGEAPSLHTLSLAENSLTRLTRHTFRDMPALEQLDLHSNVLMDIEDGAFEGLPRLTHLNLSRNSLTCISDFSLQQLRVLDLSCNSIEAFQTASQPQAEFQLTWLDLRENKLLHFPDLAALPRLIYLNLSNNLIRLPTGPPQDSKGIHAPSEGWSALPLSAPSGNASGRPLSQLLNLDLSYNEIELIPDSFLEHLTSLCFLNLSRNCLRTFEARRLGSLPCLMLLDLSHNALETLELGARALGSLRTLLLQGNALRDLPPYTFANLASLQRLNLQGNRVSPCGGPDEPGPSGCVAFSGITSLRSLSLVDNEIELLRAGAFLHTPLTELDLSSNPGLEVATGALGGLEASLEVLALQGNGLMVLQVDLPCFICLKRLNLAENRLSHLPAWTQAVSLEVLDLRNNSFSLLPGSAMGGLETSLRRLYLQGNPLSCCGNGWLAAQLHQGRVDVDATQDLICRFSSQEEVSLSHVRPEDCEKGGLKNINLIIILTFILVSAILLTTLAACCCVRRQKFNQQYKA
- assay-overview: cell-based or functional assay
quantity-name: IC50, reporter cell assay of TGFβ1 activation (nM)
Field: numeric (nM). Do not append units.

Record excerpt, results attached:
- binder: "Ab21 (antibody, V domains shown) VH: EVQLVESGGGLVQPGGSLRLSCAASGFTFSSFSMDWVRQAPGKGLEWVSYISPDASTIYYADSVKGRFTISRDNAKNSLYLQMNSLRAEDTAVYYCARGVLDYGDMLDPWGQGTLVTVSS VL: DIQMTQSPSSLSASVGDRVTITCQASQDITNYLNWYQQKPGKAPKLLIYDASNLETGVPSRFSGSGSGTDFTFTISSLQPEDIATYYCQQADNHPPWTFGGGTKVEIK"
  quantitative-result: 0.4
- binder: "Ab4 (antibody, V domains shown) VH: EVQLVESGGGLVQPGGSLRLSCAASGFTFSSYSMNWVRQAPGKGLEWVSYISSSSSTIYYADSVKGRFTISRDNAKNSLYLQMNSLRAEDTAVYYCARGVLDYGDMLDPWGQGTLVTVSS VL: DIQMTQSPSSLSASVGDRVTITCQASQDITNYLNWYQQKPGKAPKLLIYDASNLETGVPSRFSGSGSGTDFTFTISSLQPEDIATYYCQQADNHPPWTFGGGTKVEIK"
  quantitative-result: 0.8

We now examine a further binder.
IC50, reporter cell assay of TGFβ1 activation reading for Ab33 (antibody, V domains shown) VH: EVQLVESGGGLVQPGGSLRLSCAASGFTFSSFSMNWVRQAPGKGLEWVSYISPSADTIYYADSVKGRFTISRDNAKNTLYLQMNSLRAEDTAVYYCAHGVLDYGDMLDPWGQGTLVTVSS VL: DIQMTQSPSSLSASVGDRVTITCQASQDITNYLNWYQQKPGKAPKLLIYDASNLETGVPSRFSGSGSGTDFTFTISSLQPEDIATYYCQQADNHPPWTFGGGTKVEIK : 0.2
